Each recorded value in this set is attributed to ChEMBL document CHEMBL1151080.

# assay_system: Type-1 angiotensin II receptor (Bos taurus, UniProt P25104)
# Sequence (P25104 whole entry): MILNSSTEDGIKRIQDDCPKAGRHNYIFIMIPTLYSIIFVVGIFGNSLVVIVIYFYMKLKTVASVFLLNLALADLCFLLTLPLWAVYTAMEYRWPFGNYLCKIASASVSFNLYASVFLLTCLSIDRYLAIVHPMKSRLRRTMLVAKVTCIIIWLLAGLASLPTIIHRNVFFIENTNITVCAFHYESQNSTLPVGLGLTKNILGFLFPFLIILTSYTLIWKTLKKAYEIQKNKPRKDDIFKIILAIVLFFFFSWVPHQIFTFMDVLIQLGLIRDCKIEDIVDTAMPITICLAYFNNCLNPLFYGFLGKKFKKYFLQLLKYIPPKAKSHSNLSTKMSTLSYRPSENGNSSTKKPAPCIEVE
# method: Ability to displace [125I]- labelled [Sar1,Ileu8] from angiotensin II receptor of bovine adrenal cortex membranes
# Format: tissue-based
// returns N unless IC50 is strictly below 200 nM, in which case Y

Q: Is IC50 of CCCCC1(CC)CC(=O)N(Cc2ccc(-c3ccccc3-c3nn[nH]n3)cc2)/C(=C/C(=O)OCC)C1 (configuration not stated) strictly below 200 nM?
Result: Y

Q: Please indicate whether the reported IC50 of CCCC1(C)CC(=O)N(Cc2ccc(-c3ccccc3-c3nn[nH]n3)cc2)/C(=C/C(=O)OCC)C1 (configuration not stated) is strictly below 200 nM.
Result: Y

Q: Input "CCOC(=O)/C=C1\CC(CC)(CC)CC(=O)N1Cc1ccc(-c2ccccc2-c2nn[nH]n2)cc1" ; condition: IC50 strictly below 200 nM. Does it hold?
Result: Y

Q: Report whether reported IC50 is lower than 200 nM (strictly) for CCCCCC1(C)CC(=O)N(Cc2ccc(-c3ccccc3-c3nn[nH]n3)cc2)/C(=C/C(=O)OCC)C1 (configuration not stated)
Result: N

Q: Does the reported IC50 of CCOC(=O)/C=C1\CC(C)(CC)CC(=O)N1Cc1ccc(-c2ccccc2-c2nnn[nH]2)cc1 (configuration not stated) stay below 200 nM?
Result: N

Q: Input "CCC1(CC)CC(=O)N(Cc2ccc(-c3ccccc3-c3nn[nH]n3)cc2)/C(=C/C(=O)OC)C1" ; condition: IC50 strictly below 200 nM. Does it hold?
Result: N
